# MEASUREMENT_DESCRIPTION: Rat single-dose toxicokinetic study
# Type: in vivo, Sprague Dawley rats
# TEST_CONDITIONS: plasma, IV bolus, 8 mg/kg
EXPERIMENTAL_READOUT: half-life
Quick note: number first, unit second.

Form field: reported half-life of CC[C@H](OC)[C@@H](C)[C@H]1O[C@@H]1[C@@H](O)[C@H](C)/C=C/C=C(\C)[C@H]1OC(=O)C[C@H](O)CC[C@@](C)(O)[C@@H](OC(C)=O)/C=C/[C@@H]1C [Rebecsinib]
31.8 min

----------
# MEASUREMENT_DESCRIPTION: Rat single-dose toxicokinetic study
# Assay type: in vivo, Sprague Dawley rats
# TEST_CONDITIONS: plasma, IV bolus, 3 mg/kg
EXPERIMENTAL_READOUT: Tmax

Report Tmax for `CC[C@H](OC)[C@@H](C)[C@H]1O[C@@H]1[C@@H](O)[C@H](C)/C=C/C=C(\C)[C@H]1OC(=O)C[C@H](O)CC[C@@](C)(O)[C@@H](OC(C)=O)/C=C/[C@@H]1C` please.
≤ 10 min

----------
# MEASUREMENT_DESCRIPTION: Rat single-dose toxicokinetic study
# Format: in vivo, Sprague Dawley rats
# TEST_CONDITIONS: plasma, IV bolus, 1 mg/kg
EXPERIMENTAL_READOUT: Tmax

So what's the measured Tmax for this one? `CC[C@H](OC)[C@@H](C)[C@H]1O[C@@H]1[C@@H](O)[C@H](C)/C=C/C=C(\C)[C@H]1OC(=O)C[C@H](O)CC[C@@](C)(O)[C@@H](OC(C)=O)/C=C/[C@@H]1C`
≤ 4.98 min

----------
# MEASUREMENT_DESCRIPTION: NHP single-dose toxicokinetic study
# Type: in vivo, cynomolgus monkeys
# TEST_CONDITIONS: cynomolgus monkey, plasma, IV bolus, read-out: half-life (t1/2)
EXPERIMENTAL_READOUT: half-life

Consider the molecule shown here: `CC[C@H](OC)[C@@H](C)[C@H]1O[C@@H]1[C@@H](O)[C@H](C)/C=C/C=C(\C)[C@H]1OC(=O)C[C@H](O)CC[C@@](C)(O)[C@@H](OC(C)=O)/C=C/[C@@H]1C` What is its recorded half-life?
37.2 to 66 min

----------
# MEASUREMENT_DESCRIPTION: Rat single-dose toxicokinetic study
# Assay type: in vivo, Sprague Dawley rats
# TEST_CONDITIONS: plasma, IV bolus, 5 mg/kg
EXPERIMENTAL_READOUT: half-life (min)
Report only the number, with the unit min understood.

Request the reported half-life associated with `CC[C@H](OC)[C@@H](C)[C@H]1O[C@@H]1[C@@H](O)[C@H](C)/C=C/C=C(\C)[C@H]1OC(=O)C[C@H](O)CC[C@@](C)(O)[C@@H](OC(C)=O)/C=C/[C@@H]1C`
18.8

----------
# MEASUREMENT_DESCRIPTION: Rat single-dose toxicokinetic study
# Type: in vivo, Sprague Dawley rats
# TEST_CONDITIONS: plasma, IV bolus, 5 mg/kg
EXPERIMENTAL_READOUT: Tmax

# get_value(readout='Tmax', item= `CC[C@H](OC)[C@@H](C)[C@H]1O[C@@H]1[C@@H](O)[C@H](C)/C=C/C=C(\C)[C@H]1OC(=O)C[C@H](O)CC[C@@](C)(O)[C@@H](OC(C)=O)/C=C/[C@@H]1C` )
≤ 4.98 min
